Assay details: Tolerability in Sprague-Dawley rats: body weight and organ weight (Example 44)
Format: in vivo
Assay conditions: 50 mg/kg s.c. twice per week for 6 weeks, end of study
Strand notation (5' to 3'): a small letter for the sugar, then the base; units joined by * are phosphorothioate-linked, units joined directly phosphodiester-linked; [ ] holds rarer units or linkages, { } end groups; capitals alone tell only the bases. e = 2'-O-(2-methoxyethyl) (MOE); [5mC] = 5-methylcytosine; d = 2'-deoxy (DNA)
Attribute measured: Change in Kidney weight

| Substance | Attribute measured | Endpoint value |
| --- | --- | --- |
| ISIS 449711: 3-8-3, 4-8-4, 2-10-2, 3-10-3 or 4-10-4 MOE microwalk gapmer (Table 46) (antisense eA*e[5mC]*dA*dG*dT*dT*dT*d[5mC]*dT*dG*dG*d[5mC]*eA*eG) | Change in Kidney weight | +72% |
| ISIS 449710: 3-8-3, 4-8-4, 2-10-2, 3-10-3 or 4-10-4 MOE microwalk gapmer (Table 46) (antisense e[5mC]*eA*e[5mC]*dA*dG*dT*dT*dT*d[5mC]*dT*dG*dG*d[5mC]*eA*eG*eG) | Change in Kidney weight | +50% |
| ISIS 449709: 3-8-3, 4-8-4, 2-10-2, 3-10-3 or 4-10-4 MOE microwalk gapmer (Table 46) (antisense eG*e[5mC]*eA*e[5mC]*dA*dG*dT*dT*dT*d[5mC]*dT*dG*dG*d[5mC]*eA*eG*eG*e[5mC]) | Change in Kidney weight | +19% |
| ISIS 449707: 3-8-3, 4-8-4, 2-10-2, 3-10-3 or 4-10-4 MOE microwalk gapmer (Table 46) (antisense e[5mC]*eA*e[5mC]*eA*dG*dT*dT*dT*d[5mC]*dT*dG*dG*e[5mC]*eA*eG*eG) | Change in Kidney weight | +80% |
| ISIS 449708: 3-8-3, 4-8-4, 2-10-2, 3-10-3 or 4-10-4 MOE microwalk gapmer (Table 46) (antisense eA*e[5mC]*eA*dG*dT*dT*dT*d[5mC]*dT*dG*dG*e[5mC]*eA*eG) | Change in Kidney weight | +40% |
